- Tested target: MtACS (Mycobacterium tuberculosis acetyl-CoA synthetase) (Mycobacterium tuberculosis, UniProt P9WQD1)
- Sequence (P9WQD1 2-651): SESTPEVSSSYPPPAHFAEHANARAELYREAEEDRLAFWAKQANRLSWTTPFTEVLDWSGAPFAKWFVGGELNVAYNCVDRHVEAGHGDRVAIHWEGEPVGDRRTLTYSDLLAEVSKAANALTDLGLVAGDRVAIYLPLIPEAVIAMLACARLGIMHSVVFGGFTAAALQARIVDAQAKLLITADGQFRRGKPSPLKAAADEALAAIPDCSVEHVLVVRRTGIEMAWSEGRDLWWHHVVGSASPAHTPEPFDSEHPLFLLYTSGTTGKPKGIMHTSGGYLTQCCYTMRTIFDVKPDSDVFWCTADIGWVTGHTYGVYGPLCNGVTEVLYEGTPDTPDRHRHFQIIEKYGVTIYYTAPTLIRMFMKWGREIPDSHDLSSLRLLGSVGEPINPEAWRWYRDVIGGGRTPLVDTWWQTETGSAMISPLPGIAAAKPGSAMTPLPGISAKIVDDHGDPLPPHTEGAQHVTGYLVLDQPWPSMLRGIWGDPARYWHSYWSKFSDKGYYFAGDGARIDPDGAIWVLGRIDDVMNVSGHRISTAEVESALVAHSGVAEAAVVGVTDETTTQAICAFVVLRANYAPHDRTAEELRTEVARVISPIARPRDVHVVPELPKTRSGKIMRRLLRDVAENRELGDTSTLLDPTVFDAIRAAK
Measure name: Ki
Report the figure along with its unit, number first.

q: Give the measured Ki of Nc1ncnc2c1ncn2[C@@H]1O[C@H](COP(=O)(O)CP(=O)(O)OP(=O)(O)O)[C@@H](O)[C@H]1O [AMPCPP] .
a: 5 mM
